Molecular target: Angiotensin-converting enzyme (Bos taurus)
Assay: Inhibition of ACE in bovine kidney
Design: concentration or dose not given beside the values
Details: concentration not given here
Square brackets hold non-standard residues; d marks the D form. Peptide text beside a SMILES is read from it. Dip = N[C@H](C(=O)O)C(c1ccccc1)c1ccccc1; β3hW = N[C@H](CC(=O)O)Cc1c[nH]c2ccccc12; 3Thi = N[C@@H](Cc1ccsc1)C(=O)O; Cha = N[C@@H](CC1CCCCC1)C(=O)O; Orn = NCCC[C@H](N)C(=O)O
assay-metric: inhibition (%)
Give just the numeric value; % need not be written.

Solved cases (5 shown):
NCCCC[C@H](NC(=O)[C@@H](N)Cc1ccsc1)C(=O)N1CCC[C@H]1C(=O)O (H-[3Thi]-Lys-Pro-OH); 13.3
NCCC[C@H](NC(=O)[C@@H](N)C(c1ccccc1)c1ccccc1)C(=O)N1CCC[C@H]1C(=O)O (H-[Dip]-[Orn]-Pro-OH); 27.7
NCCC[C@H](NC(=O)[C@@H](N)Cc1ccsc1)C(=O)N1CCC[C@H]1C(=O)O (H-[3Thi]-[Orn]-Pro-OH); 74.7
NCCC[C@H](NC(=O)CCc1ccc(O)cc1)C(=O)N1CCC[C@H]1C(=O)O; 23.8
NCCCC[C@H](NC(=O)[C@@H](N)Cc1ccco1)C(=O)N1CCC[C@H]1C(=O)O; 10.1

NCCCC[C@H](NC(=O)C[C@@H](N)Cc1c[nH]c2ccccc12)C(=O)N1CCC[C@H]1C(=O)O (H-[β3hW]-Lys-Pro-OH) has a reported inhibition of 30.2

inhibition for NCCC[C@H](NC(=O)CCc1nc2ccccc2[nH]1)C(=O)N1CCC[C@H]1C(=O)O is 65.5

For this compound ( NCCC[C@H](NC(=O)[C@@H](N)Cc1ccco1)C(=O)N1CCC[C@H]1C(=O)O ), measured inhibition is 35.6

inhibition in this record for NCCCC[C@H](NC(=O)[C@@H](N)CC1CCCCC1)C(=O)N1CCC[C@H]1C(=O)O (H-[Cha]-Lys-Pro-OH) : 3.71

response.value for NCCCC[C@H](NC(=O)C[C@@H](N)Cc1ccccc1)C(=O)N1CCC[C@H]1C(=O)O (field: inhibition) = 22.6

====

Target: UniProtKB P12820
Assay: Activity against ACE in bovine kidney
Square brackets hold non-standard residues; d marks the D form. Peptide text beside a SMILES is read from it. Trp(5-OH) = N[C@@H](Cc1c[nH]c2ccc(O)cc12)C(=O)O; NMeW = CN[C@@H](Cc1c[nH]c2ccccc12)C(=O)O; β3hW = N[C@H](CC(=O)O)Cc1c[nH]c2ccccc12; 3Thi = N[C@@H](Cc1ccsc1)C(=O)O; Cha = N[C@@H](CC1CCCCC1)C(=O)O; Orn = NCCC[C@H](N)C(=O)O
Label scheme for Activity: lower than 10 mU/ml is 0, 10 mU/ml and above is 1.

CN[C@@H](Cc1c[nH]c2ccccc12)C(=O)N[C@@H](CCCCN)C(=O)N1CCC[C@H]1C(=O)O (H-[NMeW]-Lys-Pro-OH); 0

Is Activity at least 10 mU/ml? Consider NCCC[C@H](NC(=O)C[C@@H](N)Cc1ccccc1)C(=O)N1CCC[C@H]1C(=O)O
0

Record NCCCC[C@H](NC(=O)C[C@@H](N)Cc1c[nH]c2ccccc12)C(=O)N1CCC[C@H]1C(=O)O (H-[β3hW]-Lys-Pro-OH) ; criterion: Activity no lower than 10 mU/ml. Met?
0

Given NCCCC[C@H](NC(=O)[C@@H](N)Cc1ccco1)C(=O)N1CCC[C@H]1C(=O)O , state whether its Activity is at least 10 mU/ml.
1

// inclusive: Activity at least 10 mU/ml? input: NCCC[C@H](NC(=O)[C@@H](N)CC1CCCCC1)C(=O)N1CCC[C@H]1C(=O)O (H-[Cha]-[Orn]-Pro-OH)
0

Quick check, Activity >= 10 mU/ml? NCCC[C@H](NC(=O)C[C@@H](N)Cc1c[nH]c2ccccc12)C(=O)N1CCC[C@H]1C(=O)O (H-[β3hW]-[Orn]-Pro-OH)
1

Determine whether this compound has Activity no lower than 10 mU/ml: NCCC[C@H](NC(=O)[C@@H](N)Cc1c[nH]c2ccc(O)cc12)C(=O)N1CCC[C@H]1C(=O)O (H-[Trp(5-OH)]-[Orn]-Pro-OH)
0

Tell me whether Activity is at least 10 mU/ml here: NCCCC[C@H](NC(=O)[C@@H](N)CC1CCCCC1)C(=O)N1CCC[C@H]1C(=O)O (H-[Cha]-Lys-Pro-OH)
1

Would you say NCCCC[C@H](NC(=O)C[C@@H](N)Cc1ccccc1)C(=O)N1CCC[C@H]1C(=O)O shows Activity at minimum 10 mU/ml?
1

Hello, I need to know if NCCC[C@H](NC(=O)[C@@H](N)Cc1ccsc1)C(=O)N1CCC[C@H]1C(=O)O (H-[3Thi]-[Orn]-Pro-OH) has measured Activity not below 10 mU/ml. Thanks!
0

Please tell me: is the compound NCCC[C@H](NC(=O)CCc1nc2ccccc2[nH]1)C(=O)N1CCC[C@H]1C(=O)O at or over 10 mU/ml in terms of Activity?
0

====

Target: Angiotensin-converting enzyme (Bos taurus)
Assay: Activity against ACE in bovine kidney
Square brackets hold non-standard residues; d marks the D form. Peptide text beside a SMILES is read from it. Dip = N[C@H](C(=O)O)C(c1ccccc1)c1ccccc1; Tic = O=C(O)[C@@H]1Cc2ccccc2CN1; 3Thi = N[C@@H](Cc1ccsc1)C(=O)O; Orn = NCCC[C@H](N)C(=O)O
Items are presented alongside their recorded Activity.
# value in mU/ml; strip the unit string

As a guide, the following entries are already answered.
NCCCC[C@H](NC(=O)CCc1ccc(O)cc1)C(=O)N1CCC[C@H]1C(=O)O; 9.52
NCCCC[C@H](NC(=O)[C@@H](N)Cc1ccsc1)C(=O)N1CCC[C@H]1C(=O)O (H-[3Thi]-Lys-Pro-OH); 11.7
NCCC[C@H](NC(=O)[C@@H]1Cc2ccccc2CN1)C(=O)N1CCC[C@H]1C(=O)O (H-[Tic]-[Orn]-Pro-OH); 10.1

Shift focus to the following entry.
Reported Angiotensin-converting enzyme (Bos taurus) Activity for item NCCCC[C@H](NC(=O)[C@@H](N)C(c1ccccc1)c1ccccc1)C(=O)N1CCC[C@H]1C(=O)O (H-[Dip]-Lys-Pro-OH) was 8.91

====

Molecular target: Angiotensin-converting enzyme (Bos taurus)
Assay: Inhibition of ACE in bovine kidney
Design: concentration or dose not given beside the values
Settings: concentration not given here
Square brackets hold non-standard residues; d marks the D form. Peptide text beside a SMILES is read from it. Trp(5-OH) = N[C@@H](Cc1c[nH]c2ccc(O)cc12)C(=O)O; β3hW = N[C@H](CC(=O)O)Cc1c[nH]c2ccccc12; Tic = O=C(O)[C@@H]1Cc2ccccc2CN1; Orn = NCCC[C@H](N)C(=O)O
assay-metric: inhibition (%)
Numbers only here, please. The scale is %.

Consider the worked cases shown below.
NCCC[C@H](NC(=O)C[C@@H](N)Cc1c[nH]c2ccccc12)C(=O)N1CCC[C@H]1C(=O)O (H-[β3hW]-[Orn]-Pro-OH); 9.13
NCCC[C@H](NC(=O)[C@@H](N)Cc1c[nH]c2ccc(O)cc12)C(=O)N1CCC[C@H]1C(=O)O (H-[Trp(5-OH)]-[Orn]-Pro-OH); 68.8
NCCCC[C@H](NC(=O)[C@@H]1Cc2ccccc2CN1)C(=O)N1CCC[C@H]1C(=O)O (H-[Tic]-Lys-Pro-OH); 19.4
NCCC[C@H](NC(=O)[C@@H]1Cc2ccccc2CN1)C(=O)N1CCC[C@H]1C(=O)O (H-[Tic]-[Orn]-Pro-OH); 25
NCCCC[C@H](NC(=O)CCc1ccc(O)cc1)C(=O)N1CCC[C@H]1C(=O)O; 29.3

We next turn to a different molecule, shown below.
For reference, reported inhibition for NCCC[C@H](NC(=O)C[C@@H](N)Cc1ccccc1)C(=O)N1CCC[C@H]1C(=O)O stands at 31.7

====

# Activity values compiled below
Target: Angiotensin-converting enzyme (Bos taurus) (UniProt P12820)
Sequence (P12820 whole entry, looked up): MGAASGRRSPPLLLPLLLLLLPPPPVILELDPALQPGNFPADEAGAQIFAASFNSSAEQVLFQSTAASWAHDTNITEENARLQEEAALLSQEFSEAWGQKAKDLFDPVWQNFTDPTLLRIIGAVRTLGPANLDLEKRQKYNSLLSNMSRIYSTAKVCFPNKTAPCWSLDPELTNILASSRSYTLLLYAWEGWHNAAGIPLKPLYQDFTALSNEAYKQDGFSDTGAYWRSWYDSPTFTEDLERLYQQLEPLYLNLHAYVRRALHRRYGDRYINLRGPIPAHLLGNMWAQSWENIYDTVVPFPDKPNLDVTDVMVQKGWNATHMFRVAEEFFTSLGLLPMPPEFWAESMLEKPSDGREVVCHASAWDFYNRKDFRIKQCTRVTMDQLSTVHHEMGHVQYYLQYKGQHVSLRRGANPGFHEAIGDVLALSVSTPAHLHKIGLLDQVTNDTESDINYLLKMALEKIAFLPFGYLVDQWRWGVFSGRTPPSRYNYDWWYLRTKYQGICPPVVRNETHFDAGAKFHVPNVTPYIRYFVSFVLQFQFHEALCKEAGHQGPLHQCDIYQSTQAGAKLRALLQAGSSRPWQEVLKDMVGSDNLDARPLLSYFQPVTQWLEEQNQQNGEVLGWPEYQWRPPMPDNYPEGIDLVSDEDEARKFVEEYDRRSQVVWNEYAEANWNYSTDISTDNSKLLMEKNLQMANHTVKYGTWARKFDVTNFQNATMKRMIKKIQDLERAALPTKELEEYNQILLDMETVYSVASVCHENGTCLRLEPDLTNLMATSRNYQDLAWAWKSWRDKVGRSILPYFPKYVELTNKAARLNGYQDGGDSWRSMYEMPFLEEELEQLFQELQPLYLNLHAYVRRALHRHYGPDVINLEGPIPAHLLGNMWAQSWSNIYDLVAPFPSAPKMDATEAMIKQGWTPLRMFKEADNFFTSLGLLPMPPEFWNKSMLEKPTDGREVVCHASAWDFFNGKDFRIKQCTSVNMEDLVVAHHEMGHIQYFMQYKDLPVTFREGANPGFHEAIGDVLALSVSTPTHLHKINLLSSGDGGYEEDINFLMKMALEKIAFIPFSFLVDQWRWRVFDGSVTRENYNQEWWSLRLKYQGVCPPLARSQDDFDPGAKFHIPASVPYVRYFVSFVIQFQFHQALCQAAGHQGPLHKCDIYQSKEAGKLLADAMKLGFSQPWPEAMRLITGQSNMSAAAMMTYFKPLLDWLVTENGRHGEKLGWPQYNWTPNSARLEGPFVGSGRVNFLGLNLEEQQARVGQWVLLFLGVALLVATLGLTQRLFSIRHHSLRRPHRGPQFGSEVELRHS
Assay: Activity against ACE in bovine kidney
Square brackets hold non-standard residues; d marks the D form. Peptide text beside a SMILES is read from it. NMeW = CN[C@@H](Cc1c[nH]c2ccccc12)C(=O)O; Dip = N[C@H](C(=O)O)C(c1ccccc1)c1ccccc1; Tic = O=C(O)[C@@H]1Cc2ccccc2CN1; Orn = NCCC[C@H](N)C(=O)O
Use mU/ml as the unit, but write only the number.

Example results:
NCCC[C@H](NC(=O)[C@@H](N)C(c1ccccc1)c1ccccc1)C(=O)N1CCC[C@H]1C(=O)O (H-[Dip]-[Orn]-Pro-OH); 9.74
CN[C@@H](Cc1c[nH]c2ccccc12)C(=O)N[C@@H](CCCN)C(=O)N1CCC[C@H]1C(=O)O (H-[NMeW]-[Orn]-Pro-OH); 4.88
NCCC[C@H](NC(=O)CCc1ccc(O)cc1)C(=O)N1CCC[C@H]1C(=O)O; 10.3
NCCC[C@H](NC(=O)[C@@H](N)Cc1ccco1)C(=O)N1CCC[C@H]1C(=O)O; 8.67

Activity reported for this compound NCCCC[C@H](NC(=O)[C@@H]1Cc2ccccc2CN1)C(=O)N1CCC[C@H]1C(=O)O (H-[Tic]-Lys-Pro-OH) : 10.8
